B1: library; a variant is named by its letters at N, in order (parent)
chain: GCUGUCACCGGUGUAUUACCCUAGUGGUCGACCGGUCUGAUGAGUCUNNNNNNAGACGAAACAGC

# Variants of: B1
# run-description: FACS-Seq fitted mean relative fluorescence mCherry/BFP without ligand (log10 relative fluorescence); ligand: hypoxanthine (xanthine aptamer); higher = higher reporter protein expression
# assay-context: HEK293T, ligand present: no
Short version: FACS-Seq fitted mean (log10) at least 0.2 is Y, less is N.

AACUAA    Y
UCAUAG    Y
GAAGGG    N

Ask: Hi, just wondering whether GUGUAU shows FACS-Seq fitted mean (log10) of 0.2 or higher.
Result: Y

Ask: Hi, just wondering whether CCUGAG shows FACS-Seq fitted mean (log10) of 0.2 or higher.
Result: Y

Ask: Hi, just wondering whether GAUUCG shows FACS-Seq fitted mean (log10) of 0.2 or higher.
Result: N

Ask: Hi, just wondering whether GUGUGA shows FACS-Seq fitted mean (log10) of 0.2 or higher.
Result: Y

Ask: Hi, just wondering whether AGCCAU shows FACS-Seq fitted mean (log10) of 0.2 or higher.
Result: N

Values compiled from the supplement of paper PMC6757056.
